Reference source: PubChem BioAssay (NCI)

system: SK-MEL-28 melanoma; experiment: NCI tumour cell line growth inhibition, 48 h
Reported TGI values follow for various molecules

Example results:
molecule	assayed_target	TGI
c1ccc(/C(=N\Nc2nc3ccccc3[nH]2)c2ccccn2)cc1	SK-MEL-28 melanoma	12.8 µM
O=C(COc1ccccc1)NNc1ccccc1	SK-MEL-28 melanoma	> 300 µM
N#CC(NNC(=O)Cc1ccccc1)c1ccc([N+](=O)[O-])cc1 (configuration not stated)	SK-MEL-28 melanoma	> 100 µM

The recorded TGI for CSc1nc(-c2ccccc2)[nH]c(=O)n1 is > 100 µM

Value of TGI reported for the molecule COCN1C(=O)[C@@H]2C[C@@H](O)CN2C(=O)c2ccccc21 is > 100 µM

TGI reading for C=C(CN(C)C)C(=O)c1ccccc1OC : 38.2 µM

Item: COc1ccc(C2(Cl)C(Cl)(C(F)(F)F)C2(Cl)C(F)(F)F)cc1 (configuration not stated) | TGI: 29 µM

TGI reading for CCOC(=O)C(C)NC(=O)NC12CC3CC(CC(F)(C3)C1)C2 (configuration not stated) : > 100 µM

----------
tested on: SNB-75 CNS; assay: NCI tumour cell line growth inhibition, 48 h
assay_readout: TGI

// known answers, use as guide
molecule	test_value
N#CC1(CCCI)CCCC1	20.2 µM
COc1cc(C2c3cc4c(cc3OC(NNC(N)=S)C2C)OCO4)cc(OC)c1OC (stereo not given)	> 100 µM
O=C(O)c1cnc2c(ccc3[nH]cccc32)c1=O	> 100 µM
O=C(N/C(=C\c1ccccc1)c1nc2ccccc2c(=O)o1)c1ccccc1	> 86.3 µM
C/C(=C/CC[C@](C)(OC1OC(CO)C(O)C(O)C1O)[C@H]1CC[C@]2(C)[C@@H]1CC[C@@H]1[C@@]3(C)CC[C@H](O)C(C)(C)[C@@H]3C[C@H](O)[C@]12CO)CO (stereo not given in full)	> 100 µM
CCOC(=O)C1=C(C(=O)OCC)SC2(S1)C(C(=O)OCC)=C(C(=O)OCC)Sc1c2ssc1=O	3.94 µM
CCOC(=O)Cc1csc(NC(=O)C(OC(=O)c2ccc(Cl)cc2)c2ccccc2)n1 (stereo not given)	95.1 µM
O=c1[nH]c(-c2ccc(Cl)c(Cl)c2)cn1-c1ccc(Cl)cc1	37.5 µM

SNB-75 CNS data for COC(=O)C1(Cc2ccccc2)Cc2ccccc2C1O (stereo not given) ; its TGI: > 100 µM

Test item CC(=O)NC1=NC(=O)/C(=C/c2ccccc2Cl)N1C ; SNB-75 CNS; reported TGI was > 100 µM

----------
tested on: ACHN renal; test: NCI tumour cell line growth inhibition, 48 h
assay_readout: TGI

molecule	test_value
C/C(O)=C(/C=N/C(=S)Nc1ccccc1)C(=O)Nc1ccccc1C	> 100 µM
c1cc[c]([Ge]([O]c2cccc3cccnc23)([c]2ccccc2)[c]2ccccc2)cc1	20.8 µM

# TGI of COc1cccc2c1C(=O)c1c(O)c3c(c(O)c1C2=O)C[C@](O)(C(=O)CO)C[C@H]3O[C@@H]1C[C@@H](NC(=O)CCCN(C)C2(c3ccc(F)cc3)CC3CCC2C3)[C@H](O)[C@@H](C)O1 (stereo not given in full) = 1.4 µM

Data point: COc1cc(OC)c(C(=O)/C=C/c2ccc(C#N)cc2)c(OC)c1 ; TGI = 4.74 µM

Lab note: Cc1cc(N(CCC#N)CCC#N)ccc1/C=C1N=C(/C=C\c2ccccc2)N(NC(=O)CC(=O)Nc2ccccc2Cl)C\1=O gave TGI of > 100 µM

So for N#Cc1ccc(C2ON=C(c3ccccc3)N2C23CC4CC(CC(C4)C2)C3)cc1 (stereo not given) , the logged TGI turned out to be > 10 µM

// sample Cc1cc(C)c2c(=O)n(CC(O)CN(Cc3ccccc3)CC(O)Cn3sc4nc(C)cc(C)c4c3=O)sc2n1 (stereo not given) , its TGI was 30.1 µM

The value of TGI measured for the molecule NC(=O)c1ncn(C2C=CC(CP(=O)(O)O)C2)c1N (stereo not given) turned out to be > 100 µM

Looking up O=C1Nc2cccc(Cl)c2/C1=C\c1cccnc1 , I see its TGI listed as > 100 µM

Just so you know, measured TGI for O=C(NC(CS)C(=O)O)c1c2ccccc2nc2ccccc12 (stereo not given) came out at > 100 µM

Measured TGI of CC(C(=O)NCNC(=O)c1ccccc1)C(=O)Nc1ccccc1 (stereo not given) : > 100 µM

----------
tested on: OVCAR-3 ovarian; experiment: NCI tumour cell line growth inhibition, 48 h
# TGI annotations

Reference set (10 entries):
compound	assayed_target	assay_readout	test_value
Oc1nc(N2CCOCC2)sc1/C=C1\C=Nc2ccccc21	OVCAR-3 ovarian	TGI	> 100 µM
N#CC(O)CCOCc1ccccc1 (stereo unspecified)	OVCAR-3 ovarian	TGI	> 100 µM
O=C1NC(=O)C(CCC(=O)c2cccc3ccccc23)C(=O)N1	OVCAR-3 ovarian	TGI	> 100 µM
O=C(N/C(=C\c1ccccc1)c1nc2ccccc2c(=O)o1)c1ccccc1	OVCAR-3 ovarian	TGI	> 100 µM
CCCCCSc1ccc2nc(NC(=O)OCC)sc2c1	OVCAR-3 ovarian	TGI	2.14 µM
O=C(/C=C/c1ccc([N+](=O)[O-])cc1)N1CCN(CCOC(c2ccc(F)cc2)c2ccc(F)cc2)CC1	OVCAR-3 ovarian	TGI	> 100 µM
NC1CCN(c2nc3ccccc3c3c2CCCC3)CC1	OVCAR-3 ovarian	TGI	28.1 µM
CC1(C)CN(CC(=O)O)CC(Cc2ccc(OCC(=O)O)cc2)N(CC(=O)O)CC(C)(C)SS1 (stereo unspecified)	OVCAR-3 ovarian	TGI	> 100 µM
COC(=O)C1(Cc2ccccc2)Cc2ccccc2C1O (stereo unspecified)	OVCAR-3 ovarian	TGI	> 100 µM
C/C(=C/CC[C@](C)(OC1OC(CO)C(O)C(O)C1O)[C@H]1CC[C@]2(C)[C@@H]1CC[C@@H]1[C@@]3(C)CC[C@H](O)C(C)(C)[C@@H]3C[C@H](O)[C@]12CO)CO (stereo partly specified)	OVCAR-3 ovarian	TGI	> 100 µM

TGI for OVCAR-3 ovarian with input COc1cccc(/C=N\NC(=O)c2ccncc2)c1O equals > 100 µM

Entry Oc1ccc(N=Nc2ccc(Br)cc2)c(O)c1 under OVCAR-3 ovarian had TGI of 14.7 µM

Result for Cn1cc(NC(=O)Nc2cc(C(=O)Nc3cc(C(=O)Nc4ccc5cc(S(=O)(=O)O)cc(S(=O)(=O)O)c5c4)n(C)c3)n(C)c2)cc1C(=O)Nc1cc(C(=O)Nc2ccc3cc(S(=O)(=O)O)cc(S(=O)(=O)O)c3c2)n(C)c1 , tested on OVCAR-3 ovarian, TGI: > 100 µM

// TGI (OVCAR-3 ovarian) for NC1=NN(c2ccccc2)C(=O)C1C(=O)C(=O)Nc1ccccc1 (stereo unspecified) = > 100 µM

Given the compound COc1cc2c(/C=C3\C(=O)N(C)c4ccccc43)c[nH]c2cc1C and test system OVCAR-3 ovarian, the measured TGI is 9.78 µM

Tested on OVCAR-3 ovarian, the item CC(C)(C)c1cc(C[P+](c2ccccc2)(c2ccccc2)c2ccccc2)cc(C(C)(C)C)c1O showed TGI equal to 10.2 µM

Per the reported OVCAR-3 ovarian data, O=CN/C=C/c1ccccc1 has TGI of > 100 µM

Reported TGI (OVCAR-3 ovarian) for entry O=c1[nH]c2nc3ccccc3c(=O)n2/c1=C/c1ccccc1 is > 100 µM

----------
test system: UACC-257 melanoma; assay: NCI tumour cell line growth inhibition, 48 h
assay_readout: GI50

Answered examples (3):
molecule	GI50
CN1CCN(C)C1c1ccc(C2N(C)CCN2C)cc1	> 100 µM
Cc1[nH]c2ccccc2c1CO	24.1 µM
COc1cc2c3c(n(CCCN=[N+]=[N-])c(=O)c2cc1OC)-c1ccc([N+](=O)[O-])cc1C3=O	> 100 µM

// field: GI50; key: OCC1OC(N2C=C(c3nc4ccccc4s3)C3C=CC=CC32)C(O)C(O)C1O (centres undefined) ; value = 14.8 µM

// recorded GI50 for COc1cc2c(cc1OC)[C@@H]1C(=O)c3ccc4c(c3O[C@@H]1CO2)C[C@H](C(C)C)O4 : 4.19 µM

Entry CCOC(=O)c1c(NN2CCN(CC(F)(F)F)CC2)oc(/C=C2\C=Nc3ncccc32)c1O , GI50 reported as 6.45 µM

----------
tested on: EKVX NSCLC; experiment: NCI tumour cell line growth inhibition, 48 h
assay_readout: TGI

Field: example entries. Status: answers known.
compound	test_value
Cc1cccc2c(=O)c3c(sc12)c(NCCCNCCO)nc1ccccc13	3 µM
Nc1nc(Sc2ccc([N+](=O)[O-])c3nonc23)c2ncn(C3OC(CO)C(O)C3O)c2n1 (stereo unspecified)	> 49.8 µM
COc1cc(OC)c(C(=O)/C=C/c2ccc(C#N)cc2)c(OC)c1	> 50 µM
COc1ccc2c(n1)Sc1nc3ccccc3nc1N2	60.3 µM
Oc1ccc(Br)cc1C=Nc1c(NC2CCCCC2)oc2ccc(Br)cc12	> 100 µM

TGI reported for this compound CN1CCc2ccccc2C1Cc1ccccc1NC(=O)c1sc2ccccc2c1Cl (stereo unspecified) : > 100 µM

Entry COc1ccc(OC2(c3cc(OC)ccc3OC)OC(=O)c3ccccc32)cc1 (stereo unspecified) ; TGI = > 100 µM

Per the record, Cc1ccc(C(=O)NC2CCCCC2)cc1N=NN(C)C has TGI of > 100 µM

The compound identified as COc1cc(OCCN(C)C)c2[nH]c(C(=O)N3CC(CCl)c4c3cc(N)c3ccccc43)cc2c1 (stereo unspecified) registered its TGI at 0.0521 µM

Record COc1cccc(S(=O)(=O)NC2=NCCN2C(=S)SN2CCn3c2nsc3=S)c1 . Reported TGI: > 100 µM

Memo: CCOC(=O)Cc1csc(NC(=O)C(OC(=O)c2ccc(Cl)cc2)c2ccccc2)n1 (stereo unspecified) , reported TGI: > 100 µM
